molecular target: Elastase from human neutrophils (Homo sapiens, UniProt P08246); assay: Enzymatic assay, elastase; settings: at 100 μM (stated in cell instead of IC50)
Sequence (P08246 30-267): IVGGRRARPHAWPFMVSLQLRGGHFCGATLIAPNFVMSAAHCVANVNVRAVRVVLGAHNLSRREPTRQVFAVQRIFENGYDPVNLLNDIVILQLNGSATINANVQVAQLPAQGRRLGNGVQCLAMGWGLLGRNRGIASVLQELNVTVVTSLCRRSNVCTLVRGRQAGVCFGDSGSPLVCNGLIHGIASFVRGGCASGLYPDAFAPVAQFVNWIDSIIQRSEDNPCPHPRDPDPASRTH
Where a SMILES comes first, the peptide text is derived from it.

{"columns": ["COMPOUND", "TARGET OF ASSAY", "Elastase at 100 μM % / at %"],
 "data": [
  ["CC[C@H](C)[C@@H]1NC(=O)[C@@H]2CCCN2C(=O)[C@@H]2CCCN2C(=O)[C@H](CC(=O)O)NC(=O)[C@H](CO)NC(=O)[C@H](CCCCN)NC(=O)[C@H]([C@@H](C)O)NC(=O)[C@@H]2CSSC[C@H](NC1=O)C(=O)N[C@@H](Cc1ccccc1)C(=O)N1CCC[C@@H]1C(=O)N1CCC[C@H]1C(=O)N[C@@H](CCCNC(=N)N)C(=O)N2 [Ex. 75] (HELM PEPTIDE1{R.C.T.K.S.D.P.P.I.C.F.[dP].P}$PEPTIDE1,PEPTIDE1,2:R3-10:R3|PEPTIDE1,PEPTIDE1,1:R1-13:R2$$$V2.0)", "Elastase from human neutrophils (Homo sapiens, UniProt P08246)", 69.1]
]}

Origin of values: patent US8658604B2
